These measurements were taken from PubChem BioAssay.

Target: Short transient receptor potential channel 4 (Mus musculus)
Experiment: block of DAMGO-driven TRPC4 calcium entry – cell-based, HEK293 TRPC4/mu-opioid, Fluo-4 calcium, dose response (AID 434942)
Details: HEK293 TRPC4/mu-opioid cells, DAMGO-evoked Fluo-4 calcium ratio; series mostly up to 20 µM
Entries with a potency or affinity are not part of this list. Activity calls are given as the source filed them.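 How the source made its calls: active means primary screen inhibitor hit that blocks the TRPC4 channel at some tested dose, yielding a dose curve; inactive means the rest.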
PROPERTY_LABEL: outcome

Some solved entries appear below for comparison.
COc1ccc(C(=O)NNC(=O)CN2CCC(n3nnc4cc(C)ccc43)CC2)cc1 ... inactive
Clc1ccc2nc(CN3CCCc4ccccc43)cn2c1 ... inactive
CN(CC(=O)Nc1sc2c(c1C#N)CCCCC2)Cc1nc2ccccc2c(=O)[nH]1 ... inactive
CCN1CCN(c2c(Cl)cccc2NC(=O)c2cccs2)CC1 ... inactive
CC(C)(C)n1cnc2cc(NCc3ccc(Br)cc3)ccc21 ... inactive
Cc1ccc2nc(N(CCCN(C)C)C(=O)c3ccc(S(=O)(=O)N4CCc5ccccc5C4)cc3)sc2c1 ... inactive
O=C(NC1CCN(Cc2ccccc2)CC1)C12CC3CC(CC(C3)C1)C2 ... inactive
CSc1ccc(S(=O)(=O)NCC(=O)OCC(=O)N(C)Cc2ccccc2)cc1[N+](=O)[O-] ... inactive

Recorded outcome for C=CCn1c(SCCN2CCCC2)nc2c([nH]c3ccccc32)c1=O on Short transient receptor potential channel 4 (Mus musculus) was inactive

Recorded outcome for CCOC(=O)c1cnc(-n2nc(C)cc2C)nc1NC1CCCCC1 on Short transient receptor potential channel 4 (Mus musculus) was inactive

Recorded outcome for CCOC(=O)c1c(C)n(-c2ccc(C)cc2)c2ccc(OCC(O)CNCC3CCCO3)cc12 (stereo not drawn) on Short transient receptor potential channel 4 (Mus musculus) was inactive

Recorded outcome for CCCC(=O)N/C(N)=N/c1nc(C)c2ccccc2n1 on Short transient receptor potential channel 4 (Mus musculus) was inactive

Recorded outcome for CN(C)CCCN(C(=O)c1ccc(S(=O)(=O)N2CCCCCC2)cc1)c1nc2c(F)cc(F)cc2s1 on Short transient receptor potential channel 4 (Mus musculus) was inactive

Recorded outcome for Cc1cccc(OCCC(=O)NCC(c2ccccc2)N(C)C)c1 (stereo not drawn) on Short transient receptor potential channel 4 (Mus musculus) was inactive

Recorded outcome for CCN1CCN(c2ccc(S(=O)(=O)N3CCOCC3)cc2NC(=O)c2ccccc2OC(F)F)CC1 on Short transient receptor potential channel 4 (Mus musculus) was inactive

====

Assay: serotonin-gated TRPC4 signal block – cell-based, second counter screen, HEK293 TRPC4/5HT1a, Fluo-4, counter-screen for TRPC4 inhibitor project, confirmation (AID 434978);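 on outcome: serotonin given first at submaximal then at maximal dose after compound preincubation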
Conditions: Fluo-4 calcium flux, at 10 µM, serotonin added to trigger calcium flux
The source made the active and inactive calls.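 How the source made its calls: active means primary screen active whose calcium signal fell more than 3 SD beyond the full-serotonin control mean in both duplicate plates; inactive means the rest.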
Please answer using one outcome listed in Y = active, N = inactive

# input Could you check what this test reported for CC(C)Cc1ccc(CN2CCCC(NC(=O)CCn3cnnn3)C2)cc1 (stereo not given) ?
# output N

# input Could you check what this test reported for CC(OCC(O)CN(C)CCOc1ccccc1)c1ccc(Cl)cc1 (stereo not given) ?
# output Y

# input Could you check what this test reported for O=C1CC2(CCN(S(=O)(=O)c3ccccc3F)CC2)Oc2ccccc21 ?
# output N

# input Could you check what this test reported for Cc1cccc(OCCOCCN2CCNCC2)c1C ?
# output N

# input Could you check what this test reported for Cc1nc2ccccc2n1Cc1ccc(Br)cc1 ?
# output Y

# input Could you check what this test reported for COc1cc(/C=C2\C(=O)ON=C2c2ccccc2)cc(Cl)c1O ?
# output N

# input Could you check what this test reported for Cc1cccc(Cc2c(C)nc3c(C(=O)NCc4ccco4)cnn3c2C)c1 ?
# output N

# input Could you check what this test reported for N#Cc1ccc(OCC(O)CN2CCN(c3ncc(C(F)(F)F)cc3Cl)CC2)cc1 (stereo not given) ?
# output N

# input Could you check what this test reported for CN(CC(=O)Nc1ccc(F)cc1)C(=O)COC(=O)c1ccccc1 ?
# output N

# input Could you check what this test reported for COc1ccc(C2CC(c3ccccc3)Nc3nc(NC(=O)c4cccs4)nn32)cc1 (stereo not given) ?
# output N

# input Could you check what this test reported for COc1ccc([N+](=O)[O-])cc1NCc1ccco1 ?
# output N

# input Could you check what this test reported for CC(C)c1ccc(OCc2ccc(C(=O)N3CCCC3)o2)cc1 ?
# output N

# input Could you check what this test reported for COc1cccc(NC(=O)CCC(=O)N2CC(C)Oc3ccc(C)cc32)c1 (stereo not given) ?
# output Y

# input Could you check what this test reported for CC(C)CN(C(=O)COC(=O)CCC(=O)c1ccc(Cl)cc1)c1c(N)n(Cc2ccccc2)c(=O)[nH]c1=O ?
# output N

# input Could you check what this test reported for COc1ccc(C(CNC(=O)c2cccc(Br)c2)N2CCCC2)cc1 (stereo not given) ?
# output N

# input Could you check what this test reported for CC(=O)c1ccc(N2CCN(C(=O)CCS(=O)(=O)c3ccc4c(c3)NC(=O)CS4)CC2)cc1 ?
# output N

# input Could you check what this test reported for COC(=O)c1cc(N2CCN(C)CC2)nc2ccccc12 ?
# output N

# input Could you check what this test reported for COc1ccccc1N1CCN(CCCNC(=O)Nc2ccccc2)CC1 ?
# output Y

# input Could you check what this test reported for Cc1c(C(=O)NCC(c2ccco2)N(C)C)oc2c(Cl)cccc12 (stereo not given) ?
# output N

# input Could you check what this test reported for c1cnc(N2CCN(c3cnccn3)CC2)nc1 ?
# output N

# input Could you check what this test reported for O=C(COC(=O)c1cccc([N+](=O)[O-])c1)c1ccc2c(c1)OCO2 ?
# output Y

# input Could you check what this test reported for COc1ccc(-c2cc(C3CCN(c4cc(Cl)nc(N)n4)CC3)[nH]n2)cc1 ?
# output N

# input Could you check what this test reported for OCCNc1nc2ccccc2n1CCN1CCCCC1 ?
# output Y

# input Could you check what this test reported for O=S(=O)(Cc1ccccc1)N1CCC(c2nc(-c3cccs3)no2)CC1 ?
# output N

# input Could you check what this test reported for CCOc1ccc(-n2c(C)cc(/C=C3/C(=N)N4C(=NC3=O)SN=C4S(C)(=O)=O)c2C)cc1 ?
# output N

# input Could you check what this test reported for CCOC(=O)C1(Cc2cccc(F)c2)CCN(Cc2cnn(CC)c2C)CC1 ?
# output N

# input Could you check what this test reported for COc1ccc(CN2CCN(Cc3ccc(C(F)(F)F)cc3)CC2)c(OC)c1 ?
# output Y

# input Could you check what this test reported for CC(=O)N(c1ccc(Cl)cc1)c1c[nH]c2ccccc12 ?
# output Y

# input Could you check what this test reported for CCCCN(C)CCNC(=S)Nc1ccc2nc(N3CCN(CC)CC3)cc(C)c2c1 ?
# output N

# input Could you check what this test reported for CC(C)CCN1CCN(Cc2ccsc2)CC1CCO (stereo not given) ?
# output Y

# input Could you check what this test reported for Cc1ccc(SC(CC(=O)c2ccc(C(C)(C)C)cc2)C(=O)O)cc1 (stereo not given) ?
# output N

# input Could you check what this test reported for COc1ccccc1CC(Cc1nc2ccccc2[nH]1)c1nc2ccccc2[nH]1 (stereo not given) ?
# output N

# input Could you check what this test reported for C=CCc1ccccc1OCC(CN1CCCCC1)OC(C)=O (stereo not given) ?
# output N

# input Could you check what this test reported for CCn1c(=O)n(CCOC)c(=O)c2c3c(sc21)CCCC3 ?
# output Y

# input Could you check what this test reported for Nc1nn2c(C(F)(F)F)cc(=O)[nH]c2c1N=Nc1cccc(F)c1 ?
# output N

# input Could you check what this test reported for CC(C)(C)c1ccc(-c2nnc3sc(-c4ccccn4)nn23)cc1 ?
# output N

# input Could you check what this test reported for Cc1cccc(Cn2c(N3CCN(c4ccccc4)CC3)nc3c2c(=O)n(C)c(=O)n3C)c1 ?
# output N

# input Could you check what this test reported for CCN(CCO)Cc1csc2ccc(Br)cc12 ?
# output N

# input Could you check what this test reported for CC[n+]1c(/C=C/c2ccc(OC(C)=O)c(OC)c2)ccc2ccccc21 ?
# output N

# input Could you check what this test reported for CC(C)CCc1noc(CN2CCN(c3ccc(Cl)cn3)CC2)n1 ?
# output N

# input Could you check what this test reported for Cc1cc(C)c2c(=O)n(CC(=O)NCCCN3CCN(c4ccccc4F)CC3)sc2n1 ?
# output N

# input Could you check what this test reported for COc1ccc(C(CNC(=O)C(Cc2ccccc2)NC(N)=O)N(C)C)cc1 (stereo not given) ?
# output N

# input Could you check what this test reported for Cc1ccc(S(=O)(=O)NC(=O)N2CCN(Cc3c(F)cccc3Cl)CC2)cc1 ?
# output N

# input Could you check what this test reported for CCOC(=O)C1=C(C)NC(=O)CC1c1cc2c(cc1[N+](=O)[O-])OCO2 (stereo not given) ?
# output Y

# input Could you check what this test reported for Cc1ccccc1NC(=S)NCC(c1cccnc1)N(C)C (stereo not given) ?
# output N

====

Biological target: Short transient receptor potential channel 4 (Mus musculus) (UniProt Q9QUQ5)
Sequence (Q9QUQ5 whole entry, looked up): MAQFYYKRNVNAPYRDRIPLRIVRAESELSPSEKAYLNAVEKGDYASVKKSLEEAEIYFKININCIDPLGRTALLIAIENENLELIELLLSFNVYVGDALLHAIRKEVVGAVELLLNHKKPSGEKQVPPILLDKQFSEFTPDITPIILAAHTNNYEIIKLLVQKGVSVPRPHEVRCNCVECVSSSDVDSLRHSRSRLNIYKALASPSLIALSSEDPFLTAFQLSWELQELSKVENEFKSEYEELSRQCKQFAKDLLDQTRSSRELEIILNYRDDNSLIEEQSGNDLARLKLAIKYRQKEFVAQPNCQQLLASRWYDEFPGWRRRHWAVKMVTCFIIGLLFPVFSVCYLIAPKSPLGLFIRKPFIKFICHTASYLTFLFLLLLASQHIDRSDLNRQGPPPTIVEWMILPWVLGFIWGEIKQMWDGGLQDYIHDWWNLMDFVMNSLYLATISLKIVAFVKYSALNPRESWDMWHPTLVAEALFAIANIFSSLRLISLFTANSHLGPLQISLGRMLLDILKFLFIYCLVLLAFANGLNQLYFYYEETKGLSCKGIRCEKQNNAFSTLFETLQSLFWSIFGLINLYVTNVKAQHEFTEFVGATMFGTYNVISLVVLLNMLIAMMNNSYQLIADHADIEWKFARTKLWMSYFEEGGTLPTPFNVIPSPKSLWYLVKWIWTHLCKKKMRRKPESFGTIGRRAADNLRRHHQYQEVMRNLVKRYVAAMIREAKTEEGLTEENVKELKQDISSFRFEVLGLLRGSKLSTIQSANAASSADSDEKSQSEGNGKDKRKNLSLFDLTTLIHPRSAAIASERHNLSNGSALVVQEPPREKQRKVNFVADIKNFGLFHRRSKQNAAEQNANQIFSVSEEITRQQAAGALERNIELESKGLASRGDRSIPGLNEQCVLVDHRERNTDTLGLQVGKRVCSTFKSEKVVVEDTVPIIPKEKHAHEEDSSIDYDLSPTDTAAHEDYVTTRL
Assay: blockers of DAMGO-evoked TRPC4 calcium flux – cell-based, Fluo4, HEK293 TRPC4beta/mu-opioid, confirmation (AID 2636)
Details: at 10 µM
The source made the active and inactive calls.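 How the source made its calls: active means calcium signal cut by more than 3 SD below the full-agonist control yet still positive, in both repeats and the earlier primary screen; inactive means the rest.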
Please answer using one outcome listed in True = active, False = inactive

# input Could you check what this test reported for C=CCc1ccccc1OCC(CN1CCCCC1)OC(C)=O (stereo unspecified) ?
# output True

# input Could you check what this test reported for CC1CCN(CCCNS(=O)(=O)c2cc(Br)cc3c2N(C(=O)C2CC2)CC3)CC1 ?
# output False

# input Could you check what this test reported for CC(C)(C)NCc1ccccc1OCc1cccs1 ?
# output True

# input Could you check what this test reported for O=C(c1coc2ccc(O)c(CN3CCOCC3)c12)C1CC1 ?
# output False

# input Could you check what this test reported for Cc1ncsc1CCOC(=O)C12CC3CC(CC(C3)C1)C2 ?
# output True

# input Could you check what this test reported for O=C1c2ccccc2S(=O)(=O)c2cc(C(=O)N(c3ccccn3)c3ccccn3)ccc21 ?
# output False
